- assayTarget: Protein-tyrosine kinase 6 (Homo sapiens)
- conditionNotes: at 0.1 µM
- Description: GSK_PKIS: BRK mean inhibition at 0.1 uM [Nanosyn]
# maps each entry to its inhibition
Your answer is read as %, so omit the unit and give the number.

Solved entries:
| compoundString | inhibition (%) |
| --- | --- |
| CCS(=O)(=O)c1ccc(OC)c(Nc2ncc(-c3cccc(C(C)=O)c3)o2)c1 | 4.59 |
| COC(=O)Nc1nc2ccc(Oc3ccc(NC(=O)Nc4cc(C(F)(F)F)ccc4F)cc3)cc2s1 | 1.06 |

Read the next record carefully.
Entry under test: COc1cccc(Nc2nccc(-c3cnn4ncccc34)n2)c1 . Its inhibition was 1.39

###

- assayTarget: Tyrosine-protein kinase TXK (Homo sapiens);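 also: value given is the mean percent inhibition of TXK kinase activity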
- conditionNotes: at 1 µM
measurementName: inhibition (%)
Your answer is read as %, so omit the unit and give the number.

Solved entries:
| compound | measurementName | scaleUnit | measuredValue |
| --- | --- | --- | --- |
| COC(=O)Nc1nc2cc(Oc3ccc(NC(=O)Nc4ccccc4)cc3)ccc2[nH]1 | inhibition | % | 1.98 |
| O=C1Nc2ccccc2/C1=C1\CCc2cc(O)ccc21 | inhibition | % | 8.68 |
| Cn1c(-c2nonc2N)nc2cnccc21 | inhibition | % | 4.22 |
| O=C(O[C@H]1CN[C@H](C#Cc2cc3ncnc(Nc4ccc5c(cnn5Cc5ccccc5)c4)c3s2)C1)N1CCOCC1 | inhibition | % | 2.69 |

Value (inhibition, Tyrosine-protein kinase TXK (Homo sapiens)) for record CC1=C(C(=O)Nc2ccc3[nH]ncc3c2)C(c2ccc(F)cc2)N=C(c2ccc(C(F)(F)F)nc2)N1 (stereo not given) = 4.16

###

- assayTarget: Cyclin-dependent kinase 6 (Homo sapiens) (UniProt Q00534);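 also: mean percent inhibition of CDK6 complexed with cyclin D3, from the GSK PKIS kinase inhibitor screen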
- Sequence (Q00534 whole entry): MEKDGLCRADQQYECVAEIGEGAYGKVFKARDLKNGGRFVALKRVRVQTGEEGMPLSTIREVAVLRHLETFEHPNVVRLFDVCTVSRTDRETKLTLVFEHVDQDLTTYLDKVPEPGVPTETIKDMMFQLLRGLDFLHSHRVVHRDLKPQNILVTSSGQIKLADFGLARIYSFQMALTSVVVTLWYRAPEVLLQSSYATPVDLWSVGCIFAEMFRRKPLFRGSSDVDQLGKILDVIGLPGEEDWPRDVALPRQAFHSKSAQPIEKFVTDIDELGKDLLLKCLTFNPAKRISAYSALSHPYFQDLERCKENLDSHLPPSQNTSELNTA
- conditionNotes: at 0.1 µM
measurementName: inhibition (%)
Your answer is read as %, so omit the unit and give the number.

Solved entries:
| compoundString | inhibition, % |
| --- | --- |
| c1cnn2ncc(-c3ccnc(NCCCN4CCOCC4)n3)c2c1 | -1.7 |
| OCCCNc1nccc(-c2c(-c3ccc(F)cc3)nn3cc(C(F)(F)F)ccc23)n1 | 1.79 |
| FC(F)(F)CNc1nccc(-c2cnn3ncccc23)n1 | 0.9 |

Read the next record carefully.
Entry under test: N#Cc1ccc2c(-c3ccnc(NC4CC4)n3)c(-c3ccc(F)cc3)nn2c1 . Its inhibition was -1.07

###

- assayTarget: Dual specificity tyrosine-phosphorylation-regulated kinase 2 (Homo sapiens);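 also: values are mean percent inhibition of DYRK2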
- conditionNotes: at 0.1 µM
measurementName: inhibition (%)
Your answer is read as %, so omit the unit and give the number.

| molecule | assayTarget | inhibition [%] |
| --- | --- | --- |
| COc1ccccc1-c1cc(/C=C2\C(=O)Nc3ncc(Br)cc32)cc(Br)c1O | Dual specificity tyrosine-phosphorylation-regulated kinase 2 (Homo sapiens) | 3.68 |
| CNC(=O)c1cncc(/C=C/c2ccccc2C)c1 | Dual specificity tyrosine-phosphorylation-regulated kinase 2 (Homo sapiens) | 1.99 |
| NS(=O)(=O)c1ccc(N/N=C2\C(=O)Nc3cccc(CCc4ccncc4)c32)cc1 | Dual specificity tyrosine-phosphorylation-regulated kinase 2 (Homo sapiens) | -0.67 |

Entry under test: COc1cccc(Nc2nccc(-c3cnn4ncccc34)n2)c1 . Its inhibition was 5.88

Entry under test: CS(=O)(=O)Nc1ccc(-c2ccc3c(NC(=O)C4CC4)n[nH]c3c2)cc1 . Its inhibition was 2.37

Entry under test: OCCCNc1nccc(-c2c(-c3ccc(F)cc3)nn3cc(C(F)(F)F)ccc23)n1 . Its inhibition was 2.33

Entry under test: CCn1c(-c2nonc2N)nc2cncc(C(=O)NCCNC)c21 . Its inhibition was 7.99

Entry under test: N#Cc1ccc2c(-c3ccnc(NC4CC4)n3)c(-c3ccc(F)cc3)nn2c1 . Its inhibition was 0.64

Entry under test: CC1=C(C(=O)Nc2ccc3[nH]ncc3c2)C(c2ccc(F)cc2)N=C(c2ccc(C(F)(F)F)nc2)N1 (stereo not given) . Its inhibition was 1.37

Entry under test: Cc1cc(O)cc(C)c1/C=C/c1cncc(C(N)=O)c1 . Its inhibition was 1.62
